// reported TGI for each item listed
Test system: OVCAR-5 ovarian
Assay Details: NCI tumour cell line growth inhibition, 48 h

(Q) GET /values?readout=TGI&item= `O=c1cc2ccccc2nn1-c1ccccc1Cl`
(A) > 100 µM

(Q) Quick one: TGI of COc1c(O)ccc2c1CN1CCc3cc4c(cc3C1C2)OCO4 (stereo unspecified) ?
(A) > 100 µM

(Q) Any idea what TGI was measured for `C/C=C(\C)C(=O)O[C@H]1C=CC(=O)O[C@H]1CNC(=O)[C@H](C)O` ?
(A) 38.3 µM

(Q) What TGI value was documented for this compound, `[N-]=[N+]=Nc1ccc2c(c1)Sc1ccccc1N2CCCCCl` ?
(A) > 100 µM

(Q) Endpoint output: TGI of CC1(O)/C(=N/O)CC2CC1C2(C)C (stereo unspecified) . Value?
(A) > 100 µM

(Q) Query (compound): O=C1CC2(CCC(O)(c3ccc(Cl)cc3)C(C(=O)c3ccc(Cl)cc3)C2)C(=O)c2ccccc2N1 (stereo unspecified) ; field requested: TGI
(A) > 100 µM

(Q) Name the recorded TGI for `OCCCCC#Cc1ccccc1C#Cc1ccccc1C(F)(F)F` .
(A) 30.8 µM

(Q) // returns reported TGI for input `Cc1cc(C)nc(Nc2nc3ccc([N+](=O)[O-])cc3[nH]2)n1`
(A) > 100 µM
